Tested on: Streptococci
Experimental protocol: Broth microdilution MIC, Streptococci (Example 11, Table 7)
Format: cell-based
Condition set: S. pyogenes MMX 8778
The entries below come with measured MIC values attached.
Observation type: MIC

{"columns": ["Compound", "Target under test", "Result value"],
 "data": [
  ["CN[C@H](CC(C)C)C(=O)N[C@H]1C(=O)N[C@@H](CC(N)=O)C(=O)N[C@H]2C(=O)N[C@H]3C(=O)N[C@H](C(=O)N[C@H](C(=O)O)c4cc(O)cc(O)c4-c4cc3ccc4O)[C@H](O)c3ccc(c(Cl)c3)Oc3cc2cc(c3O[C@@H]2O[C@H](CO)[C@@H](O)[C@H](O)[C@H]2O[C@H]2C[C@](C)(N)[C@H](O)[C@H](C)O2)Oc2ccc(cc2Cl)[C@H]1O [Vancomycin]", "Streptococci", "0.25 µg/mL"],
  ["CN[C@H](CC(C)C)C(=O)N[C@H]1C(=O)N[C@@H](CC(N)=O)C(=O)N[C@H]2C(=O)N[C@H]3C(=O)N[C@H](C(=O)N[C@H](C(=O)O)c4cc(O)cc(O)c4-c4cc3ccc4O)[C@H](O[C@H]3C[C@](C)(N)[C@@H](O)[C@H](C)O3)c3ccc(c(Cl)c3)Oc3cc2cc(c3O[C@@H]2O[C@H](CO)[C@@H](O)[C@H](O)[C@H]2O[C@H]2C[C@](C)(NCc3ccc(-c4ccc(Cl)cc4)cc3)[C@@H](O)[C@H](C)O2)Oc2ccc(cc2Cl)[C@H]1O [Oritavancin]", "Streptococci", "1 µg/mL"],
  ["CN(C)c1cc(NC(=O)CNC(C)(C)C)c(O)c2c1C[C@H]1C[C@H]3[C@H](N(C)C)C(O)=C(C(N)=O)C(=O)[C@@]3(O)C(O)=C1C2=O [Tigecycline]", "Streptococci", "0.03 µg/mL"]
]}

* * *

Test system: Enterococci
Format: cell-based
Condition set: E. faecium MMX 4204
Observation type: MIC (mg/L)

{"columns": ["Smiles repr", "Target under test", "Result value"],
 "data": [
  ["CC(=O)NC[C@H]1CN(c2ccc(N3CCOCC3)c(F)c2)C(=O)O1", "Enterococci", 2],
  ["CN[C@H](CC(C)C)C(=O)N[C@H]1C(=O)N[C@@H](CC(N)=O)C(=O)N[C@H]2C(=O)N[C@H]3C(=O)N[C@H](C(=O)N[C@H](C(=O)O)c4cc(O)cc(O)c4-c4cc3ccc4O)[C@H](O[C@H]3C[C@](C)(N)[C@@H](O)[C@H](C)O3)c3ccc(c(Cl)c3)Oc3cc2cc(c3O[C@@H]2O[C@H](CO)[C@@H](O)[C@H](O)[C@H]2O[C@H]2C[C@](C)(NCc3ccc(-c4ccc(Cl)cc4)cc3)[C@@H](O)[C@H](C)O2)Oc2ccc(cc2Cl)[C@H]1O", "Enterococci", 0.015],
  ["CCCCCCCCCCNCCN[C@@]1(C)C[C@H](O[C@H]2[C@H](Oc3c4cc5cc3Oc3ccc(cc3Cl)[C@@H](O)[C@@H](NC(=O)[C@@H](CC(C)C)NC)C(=O)N[C@@H](CC(N)=O)C(=O)N[C@H]5C(=O)N[C@H]3C(=O)N[C@H](C(=O)N[C@H](C(=O)O)c5cc(O)c(CNCP(=O)(O)O)c(O)c5-c5cc3ccc5O)[C@H](O)c3ccc(c(Cl)c3)O4)O[C@H](CO)[C@@H](O)[C@@H]2O)O[C@@H](C)[C@H]1O", "Enterococci", 0.06]
]}
